// values below are reported pKd
# target.of.assay: T1, hGITR.mFc (human)
# T1 construct: soluble dimeric construct with mouse Fc; also called dimeric human GITR
# T1 chain: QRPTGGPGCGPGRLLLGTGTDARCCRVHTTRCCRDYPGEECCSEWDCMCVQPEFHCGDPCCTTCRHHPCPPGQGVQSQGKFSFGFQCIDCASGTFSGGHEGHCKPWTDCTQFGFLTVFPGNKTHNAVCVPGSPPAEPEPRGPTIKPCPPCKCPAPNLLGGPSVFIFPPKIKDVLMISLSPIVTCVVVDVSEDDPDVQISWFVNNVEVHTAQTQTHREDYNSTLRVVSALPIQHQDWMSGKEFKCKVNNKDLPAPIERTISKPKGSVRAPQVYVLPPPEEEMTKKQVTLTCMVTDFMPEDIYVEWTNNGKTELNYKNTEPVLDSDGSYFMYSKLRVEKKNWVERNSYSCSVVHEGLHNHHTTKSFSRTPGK
# experiment.notes: SPR 37C, mAb capture
# Method: (Table 3). […] GITR proteins were injected over the sensor surface at a flow rate of 30 μL/minute. […] Antibody-reagent association was monitored for 4 minutes while dissociation in HBS-ET running buffer (10 mM HEPES, 150 mM NaCl, 3 mM EDTA, 0.05% (v/v) Surfactant P20, pH 7.4) was monitored for 10 minutes. Kinetic association (kₐ) and dissociation (kd) rate constants were determined by fitting the real-time sensorgrams to a 1:1 binding model using Scrubber 2.0c curve fitting software. […]
The quantity pKd is defined as the negative base-10 logarithm of the molar concentration.

binder	pKd
H1H14495P (antibody, human IgG1, V domains shown, human IgG1 (H1H)) VH: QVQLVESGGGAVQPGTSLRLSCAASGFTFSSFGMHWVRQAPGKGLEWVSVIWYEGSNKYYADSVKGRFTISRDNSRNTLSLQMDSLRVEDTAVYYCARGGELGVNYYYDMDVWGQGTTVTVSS VL: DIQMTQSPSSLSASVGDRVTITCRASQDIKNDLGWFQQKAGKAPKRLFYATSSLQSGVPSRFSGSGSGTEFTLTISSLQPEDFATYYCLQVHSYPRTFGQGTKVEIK	10.01
H4H14528P (antibody, human IgG4, V domains shown, human IgG4 (H4H)) VH: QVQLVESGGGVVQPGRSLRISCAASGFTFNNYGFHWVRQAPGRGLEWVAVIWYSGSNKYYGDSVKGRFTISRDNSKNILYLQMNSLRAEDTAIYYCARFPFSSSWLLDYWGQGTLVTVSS VL: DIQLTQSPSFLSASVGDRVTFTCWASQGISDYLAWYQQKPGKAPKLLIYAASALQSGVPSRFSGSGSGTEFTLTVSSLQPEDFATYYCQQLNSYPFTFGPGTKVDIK	8.95

Could you now look at the following binder, please?
Query: pKd; subject: H1H14486P (antibody, human IgG1, V domains shown, human IgG1 (H1H)) VH: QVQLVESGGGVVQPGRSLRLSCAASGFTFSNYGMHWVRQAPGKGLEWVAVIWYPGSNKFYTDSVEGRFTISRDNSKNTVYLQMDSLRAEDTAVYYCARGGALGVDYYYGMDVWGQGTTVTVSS VL: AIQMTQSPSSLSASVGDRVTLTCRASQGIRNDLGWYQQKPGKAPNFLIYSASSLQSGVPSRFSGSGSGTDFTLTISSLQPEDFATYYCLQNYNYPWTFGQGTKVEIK 9.80

Data provenance is patent US20170355774A1.
